Provenance of the data: patent US12419865B2

Listed below: Percent parent compound remaining at 60 minutes in liver microsomes, Guinea values for each entry.
- condition-notes: guinea pig, 1 h, pH 7.4
Give the quantity in %, number only.

# compound, unit-abbreviation, meas-value
records = [
    ("Cc1cc2ncn(-c3ccc(OC(C)C)cc3)c2cc1-c1ccc(C(C)(C)O)cc1 [Example A3]", "%", 67.6),
]

### Prompt Indicate the recorded Percent parent compound remaining at 60 minutes in liver microsomes, Guinea value for this compound: Cc1cc2ncc(-c3ccc(OC(C)(C)C)cc3)n2cc1-c1ccc(C(C)(C)O)cc1 [Example B6]
### Response 61.5

----------
- condition-notes: guinea pig, 1 h, pH 7.4
measurement-kind: Percent parent compound remaining at 60 minutes in liver microsomes, Guinea

// worked examples, Percent parent compound remaining at 60 minutes in liver microsomes, Guinea included
# smiles-notation, meas-value
records = [
    ("Cc1cc2ncc(-c3ccc(OC(C)C)cc3)n2cc1-c1ccc(C(C)(C)O)cc1", "7.4%"),
    ("CC(C)Oc1ccc(-c2ccc3nnn(-c4ccc(OC(C)C)cc4)c3c2F)cc1", ">95%"),
    ("Cc1c(-c2ccc(OC(C)C)cc2)ccc2nnn(-c3ccc(OC(C)C)cc3)c12", ">95%"),
    ("CC(C)Oc1ccc(-c2cc3c(cc2Cl)nnn3-c2ccc(OC(C)C)cc2)cc1", ">95%"),
    ("Cc1cc2ncc(-c3ccc(C(C)(C)O)cc3)n2cc1-c1ccc(OC(C)C)cc1", "67.7%"),
]

Attention now turns to another entry.
### Prompt Indicate the recorded Percent parent compound remaining at 60 minutes in liver microsomes, Guinea value for this compound: CC(C)Oc1ccc(-n2nnc3ccc(-c4ccc(C(C)(C)O)cc4)cc32)cc1
### Response 61.9%
